Source of measurements: patent US9840498B2

Biological target: human phosphoinositide-3 kinase (PI3K) alpha (Homo sapiens (Human), UniProt P42336)
Sequence (P42336 whole entry): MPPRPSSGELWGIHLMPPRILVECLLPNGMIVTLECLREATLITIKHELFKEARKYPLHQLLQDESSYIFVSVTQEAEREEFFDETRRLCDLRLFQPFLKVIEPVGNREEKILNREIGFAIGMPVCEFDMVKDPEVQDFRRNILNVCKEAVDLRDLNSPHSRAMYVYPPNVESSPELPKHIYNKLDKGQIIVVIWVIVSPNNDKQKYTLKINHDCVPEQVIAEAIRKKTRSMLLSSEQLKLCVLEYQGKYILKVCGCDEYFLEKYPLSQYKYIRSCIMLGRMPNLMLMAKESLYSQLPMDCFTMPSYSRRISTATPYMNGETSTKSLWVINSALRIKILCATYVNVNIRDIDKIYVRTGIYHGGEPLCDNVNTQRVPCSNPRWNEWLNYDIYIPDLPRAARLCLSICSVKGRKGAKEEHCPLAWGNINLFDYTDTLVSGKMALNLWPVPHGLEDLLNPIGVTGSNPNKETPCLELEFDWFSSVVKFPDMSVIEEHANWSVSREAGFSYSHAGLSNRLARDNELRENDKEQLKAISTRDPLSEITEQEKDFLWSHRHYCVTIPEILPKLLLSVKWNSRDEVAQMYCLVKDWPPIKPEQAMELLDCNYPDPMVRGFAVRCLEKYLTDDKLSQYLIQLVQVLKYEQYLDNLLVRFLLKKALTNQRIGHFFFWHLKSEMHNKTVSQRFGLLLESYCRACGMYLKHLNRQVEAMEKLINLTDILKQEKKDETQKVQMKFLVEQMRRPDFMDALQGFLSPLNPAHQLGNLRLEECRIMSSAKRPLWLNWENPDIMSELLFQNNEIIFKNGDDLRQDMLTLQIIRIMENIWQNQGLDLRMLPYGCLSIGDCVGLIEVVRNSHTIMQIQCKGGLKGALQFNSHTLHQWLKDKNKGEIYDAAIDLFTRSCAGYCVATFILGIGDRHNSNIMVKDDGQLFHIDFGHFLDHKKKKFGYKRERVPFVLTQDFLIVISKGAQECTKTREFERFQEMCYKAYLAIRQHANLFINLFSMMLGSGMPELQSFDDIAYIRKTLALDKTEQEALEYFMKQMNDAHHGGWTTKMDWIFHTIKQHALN
Sequence (Q63787 whole entry partner): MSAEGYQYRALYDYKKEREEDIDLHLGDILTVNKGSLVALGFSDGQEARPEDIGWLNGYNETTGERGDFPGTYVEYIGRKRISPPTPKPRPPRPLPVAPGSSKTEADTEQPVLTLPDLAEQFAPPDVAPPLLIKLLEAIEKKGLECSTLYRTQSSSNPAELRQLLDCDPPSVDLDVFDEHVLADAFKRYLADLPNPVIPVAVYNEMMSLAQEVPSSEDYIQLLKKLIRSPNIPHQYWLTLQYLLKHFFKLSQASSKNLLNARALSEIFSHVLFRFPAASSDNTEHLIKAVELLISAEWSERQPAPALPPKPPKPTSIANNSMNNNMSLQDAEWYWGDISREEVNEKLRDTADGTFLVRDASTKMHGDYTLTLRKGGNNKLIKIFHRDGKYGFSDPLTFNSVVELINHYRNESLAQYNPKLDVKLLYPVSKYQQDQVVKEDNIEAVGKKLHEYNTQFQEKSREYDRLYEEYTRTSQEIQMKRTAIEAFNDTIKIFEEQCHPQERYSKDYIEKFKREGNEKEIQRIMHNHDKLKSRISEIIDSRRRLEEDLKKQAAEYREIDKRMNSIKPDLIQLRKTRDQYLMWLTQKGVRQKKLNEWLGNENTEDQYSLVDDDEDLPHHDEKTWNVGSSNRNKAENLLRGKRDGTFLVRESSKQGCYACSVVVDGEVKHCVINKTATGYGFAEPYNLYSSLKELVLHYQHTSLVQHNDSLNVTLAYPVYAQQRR
Test: PI3K-mediated Akt 1/2 (S473) phosphorylation in Rat-1 cells overexpressing PI3K alpha
Conditions: cellular assay, p-AKT(Ser473), read-out: Cell PI3K alpha IC50

| structure | IC50 |
| --- | --- |
| Cn1cnc(-c2cccc3nc([C@@H]4CCCN4c4ncnc(N)c4C#N)n(-c4ccccc4)c(=O)c23)c1 | > 10 µM |
| CO[C@H]1C[C@@H](c2nc3cccc(-c4cnn(C)c4)c3c(=O)n2-c2ccccc2)N(c2nc(N)nc3[nH]cnc23)C1 | > 10 µM |
| COc1ncc(-c2cccc3nc([C@@H]4C[C@H](O)CN4c4nc(N)nc(C)c4C#N)n(-c4ccccc4)c(=O)c23)cn1 | > 10 µM |

====

Molecular target: UniProtKB P42336
Experiment: PI3K-mediated Akt 1/2 (S473) phosphorylation in Rat-1 cells overexpressing PI3K alpha
Conditions: cellular assay, p-AKT(Ser473), read-out: Cell PI3K alpha IC50
measured-attribute: IC50

| structure | assayed-system | result |
| --- | --- | --- |
| Cc1nc(N)nc(N2C[C@@H](O)C[C@H]2c2nc3ccc(F)c(-c4cn(C)cn4)c3c(=O)n2-c2ccccc2)c1C#N | UniProtKB P42336 | > 10 µM |
| Cc1nc(N)nc(N2C[C@@H](O)C[C@H]2c2nc3cccc(-c4cnn(CCO)c4)c3c(=O)n2-c2ccccc2)c1C#N | UniProtKB P42336 | > 10 µM |
| Cc1ncc(-c2cccc3nc([C@@H]4C[C@H](O)CN4c4nc(N)nc(C)c4C#N)n(-c4ccccc4)c(=O)c23)cn1 | UniProtKB P42336 | > 10 µM |
| Cc1nc(N)nc(N2C[C@@H](O)C[C@H]2c2nc3cccc(-c4cncnc4)c3c(=O)n2-c2ccccc2)c1C#N | UniProtKB P42336 | > 6.5 µM |

====

Target: PI3K delta (Homo sapiens (Human))
Sequence (O00329 2-1044): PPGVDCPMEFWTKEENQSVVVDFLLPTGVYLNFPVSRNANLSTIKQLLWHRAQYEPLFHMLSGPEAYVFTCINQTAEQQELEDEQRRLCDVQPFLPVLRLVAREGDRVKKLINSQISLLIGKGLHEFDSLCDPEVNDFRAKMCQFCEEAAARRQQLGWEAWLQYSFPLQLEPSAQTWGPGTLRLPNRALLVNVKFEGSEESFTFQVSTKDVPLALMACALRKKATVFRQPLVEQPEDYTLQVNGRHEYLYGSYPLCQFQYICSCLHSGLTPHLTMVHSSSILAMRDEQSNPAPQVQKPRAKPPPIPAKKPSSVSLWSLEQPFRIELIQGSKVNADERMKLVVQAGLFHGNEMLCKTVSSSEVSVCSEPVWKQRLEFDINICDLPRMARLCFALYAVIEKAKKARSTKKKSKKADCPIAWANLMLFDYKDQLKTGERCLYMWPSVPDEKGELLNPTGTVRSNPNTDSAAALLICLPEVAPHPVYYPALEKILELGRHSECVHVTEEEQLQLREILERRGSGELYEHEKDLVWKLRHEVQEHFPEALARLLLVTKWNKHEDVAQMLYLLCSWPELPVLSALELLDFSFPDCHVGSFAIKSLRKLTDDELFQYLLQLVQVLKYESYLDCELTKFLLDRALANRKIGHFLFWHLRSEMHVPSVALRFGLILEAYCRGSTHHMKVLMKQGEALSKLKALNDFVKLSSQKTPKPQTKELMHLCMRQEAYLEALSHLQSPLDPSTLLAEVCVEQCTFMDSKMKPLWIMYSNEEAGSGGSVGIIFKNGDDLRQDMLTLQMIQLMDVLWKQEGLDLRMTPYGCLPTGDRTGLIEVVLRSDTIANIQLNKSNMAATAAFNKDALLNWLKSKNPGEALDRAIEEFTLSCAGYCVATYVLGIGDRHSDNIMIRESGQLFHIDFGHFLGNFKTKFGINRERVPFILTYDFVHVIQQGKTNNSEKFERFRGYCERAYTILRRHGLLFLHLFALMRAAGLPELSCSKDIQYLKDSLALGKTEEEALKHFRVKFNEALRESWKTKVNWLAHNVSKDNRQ
Sequence (P27986 461-568 partner): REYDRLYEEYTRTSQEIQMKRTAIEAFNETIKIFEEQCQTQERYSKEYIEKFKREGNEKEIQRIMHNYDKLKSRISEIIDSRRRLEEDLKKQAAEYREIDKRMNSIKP
Assay: Biochemical assay for PI3Kdelta (Adapta TR-FRET format)
Conditions: enzymatic assay
measured-attribute: IC50 (nM)

| molecule | measured-attribute | quantitative-result |
| --- | --- | --- |
| Cc1nc(N)nc(N2CCC[C@H]2c2nc3cccc(-c4cnn(C)c4)c3c(=O)n2-c2ccccc2)c1C#N [Example 13] | IC50 | 7 |
| COc1ccc(-c2cccc3nc([C@@H]4C[C@H](O)CN4c4nc(N)nc(C)c4C#N)n(-c4ccccc4)c(=O)c23)cn1 [Example 27] | IC50 | 10 |
| Cn1cc(-c2c(F)ccc3nc([C@@H]4C[C@H](O)CN4c4ncnc(N)c4C#N)n(-c4ccccc4)c(=O)c23)cn1 [Example 8] | IC50 | 14 |
| Cc1ncc(-c2cccc3nc([C@@H]4CCCN4c4nc(N)nc(C)c4C#N)n(-c4ccccc4)c(=O)c23)cn1 [Example 19] | IC50 | 17 |
| COc1ncc(-c2c(F)ccc3nc([C@@H]4C[C@H](O)CN4c4nc(N)nc(C)c4C#N)n(-c4ccccc4)c(=O)c23)cn1 [Example 7] | IC50 | 6 |
| Cc1nc(N)nc(N2CCC[C@H]2c2nc3cccc(-c4cccnc4)c3c(=O)n2-c2ccccc2)c1C#N [Example 20] | IC50 | 15 |
| COc1ncc(-c2c(F)ccc3nc([C@@H]4C[C@H](O)CN4c4nc(N)nc(C)c4C#N)n(-c4ccccc4)c(=O)c23)s1 [Example 9] | IC50 | 8 |
| Cc1nc(N)nc(N2C[C@@H](O)C[C@H]2c2nc3ccc(F)c(-c4cnn(C)c4)c3c(=O)n2-c2ccccc2)c1C#N [Example 1] | IC50 | 8 |

====

Molecular target: human phosphoinositide-3 kinase (PI3K) delta (Homo sapiens (Human))
Sequence (O00329 whole entry): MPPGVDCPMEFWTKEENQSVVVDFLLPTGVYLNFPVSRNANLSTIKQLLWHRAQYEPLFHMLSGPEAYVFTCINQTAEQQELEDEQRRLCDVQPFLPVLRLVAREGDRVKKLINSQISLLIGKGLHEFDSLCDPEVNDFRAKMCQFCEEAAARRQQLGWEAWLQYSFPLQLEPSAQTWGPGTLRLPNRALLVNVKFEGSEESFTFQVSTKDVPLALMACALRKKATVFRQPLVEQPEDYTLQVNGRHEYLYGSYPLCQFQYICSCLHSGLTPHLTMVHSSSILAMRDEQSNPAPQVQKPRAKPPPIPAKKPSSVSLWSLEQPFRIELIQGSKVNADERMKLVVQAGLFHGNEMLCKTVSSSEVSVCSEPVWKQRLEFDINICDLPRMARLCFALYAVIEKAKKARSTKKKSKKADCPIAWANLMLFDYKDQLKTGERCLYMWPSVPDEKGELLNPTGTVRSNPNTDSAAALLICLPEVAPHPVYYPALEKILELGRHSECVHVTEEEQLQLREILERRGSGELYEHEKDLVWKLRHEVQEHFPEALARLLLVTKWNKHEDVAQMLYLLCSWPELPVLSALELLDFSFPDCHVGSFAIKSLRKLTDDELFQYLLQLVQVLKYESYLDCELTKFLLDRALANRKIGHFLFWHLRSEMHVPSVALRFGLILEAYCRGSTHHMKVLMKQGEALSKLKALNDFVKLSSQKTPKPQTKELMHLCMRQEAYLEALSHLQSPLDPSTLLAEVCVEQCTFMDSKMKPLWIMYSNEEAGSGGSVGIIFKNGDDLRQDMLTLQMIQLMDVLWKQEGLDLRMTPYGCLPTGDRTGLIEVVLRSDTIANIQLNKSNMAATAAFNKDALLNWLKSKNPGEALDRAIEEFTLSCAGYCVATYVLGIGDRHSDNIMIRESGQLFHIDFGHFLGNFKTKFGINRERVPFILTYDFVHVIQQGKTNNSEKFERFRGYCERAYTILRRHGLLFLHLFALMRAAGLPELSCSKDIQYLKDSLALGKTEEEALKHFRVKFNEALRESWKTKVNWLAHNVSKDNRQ
Sequence (Q63787 whole entry partner): as the sequence (Q63787 whole entry partner) above
Test: PI3K-mediated Akt 1/2 (S473) phosphorylation in Rat-1 cells overexpressing PI3K delta
Details: cellular assay, p-AKT(Ser473), read-out: Cell PI3K delta IC50
Below, each entry is listed alongside its reported IC50.
measured-attribute: IC50

| molecule | result |
| --- | --- |
| Cc1nc(N)nc(N2CCC[C@H]2c2nc3cccc(-c4cncnc4)c3c(=O)n2-c2ccccc2)c1C#N [Example 17] | < 3 nM |
| Cc1nc(N)nc(N2C[C@@H](F)C[C@H]2c2nc3cccc(-c4cnn(C)c4)c3c(=O)n2-c2ccccc2)c1C#N [Example 30] | < 10 nM |
| COc1ncc(-c2c(F)ccc3nc([C@@H]4C[C@H](O)CN4c4nc(N)nc(C)c4C#N)n(-c4ccccc4)c(=O)c23)s1 [Example 9] | < 3 nM |
| CCOc1ncc(-c2cccc3nc([C@@H]4CCCN4c4nc(N)nc(C)c4C#N)n(-c4ccccc4)c(=O)c23)cn1 [Example 32] | < 3 nM |
| Cc1nc(N)nc(N2C[C@@H](O)C[C@H]2c2nc3cccc(-c4cccnc4)c3c(=O)n2-c2ccccc2)c1C#N [Example 24] | < 3 nM |
